Provenance of the data: ChEMBL document CHEMBL4257569

# Measurement Protocol: Kinetic aqueous solubility of the compound by CAD or CLND method
# Type: physicochemical
# Assay Setup: buffer; read-out: Kinetic_solubility
Quick reference for log10 solubility kinetic among some compounds
Values below are the log10 of the recorded solubility kinetic, with µM as the unit.

Entry CS(=O)(=O)c1cccc(CNC(=O)c2cc(C(F)(F)F)ccc2Oc2ccccc2)c1 ; log10 solubility kinetic = 1.36

Entry CS(=O)(=O)c1cccc(CNC(=O)c2cc(S(F)(F)(F)(F)F)ccc2Oc2ccccc2)c1 ; log10 solubility kinetic = 0.85

Entry C[C@H](NC(=O)c1cc(F)c(F)cc1Oc1ccccc1)c1cccc(S(C)(=O)=O)c1 ; log10 solubility kinetic = 2.16

Entry C[C@H](NC(=O)[C@H]1CC(F)(F)CC[C@@H]1c1ccccc1)c1ccccc1 ; log10 solubility kinetic = 1.40

* * *

# Measurement Protocol: Activation of human Kv7.2 W236L mutant/Kv7.3 W265L mutant expressed in CHO cells assessed as 86Rb efflux at 0.001 to 100 uM after 10 mins by microbeta liquid scintillation counting analysis
# Type: cell-based
Quick reference for Activity among some compounds

[
  {
    "Compound": "CS(=O)(=O)c1cccc(CNC(=O)c2cc(C(F)(F)F)ccc2Sc2ccccc2)c1",
    "Experimental Value": "> 30 µM"
  },
  {
    "Compound": "C[C@H](NC(=O)[C@H]1CCCC[C@@H]1c1ccccc1)c1ccccc1",
    "Experimental Value": "> 30 µM"
  },
  {
    "Compound": "O=C(Nc1ccc(Cl)nc1)c1ccc(F)c(F)c1",
    "Experimental Value": "0.43 to 1.81 µM"
  }
]

Entry CS(=O)(=O)c1cccc(CNC(=O)c2cc(C(F)(F)F)ccc2Oc2ccccc2)c1 ; Activity = > 30 µM

Entry CCOC(=O)Nc1ccc(NCc2ccc(F)cc2)cc1N ; Activity = > 30 µM

Entry Cc1cc(C)c(NC(=O)C2CC3CCC2C3)c(C)c1 (stereo unspecified) ; Activity = > 11 µM

* * *

# Target Under Test: Voltage-gated potassium channel, KQT; KCNQ2(Kv7.2)/KCNQ3(Kv7.3) (Homo sapiens, UniProt O43525+O43526)
# Sequence (O43526 whole entry): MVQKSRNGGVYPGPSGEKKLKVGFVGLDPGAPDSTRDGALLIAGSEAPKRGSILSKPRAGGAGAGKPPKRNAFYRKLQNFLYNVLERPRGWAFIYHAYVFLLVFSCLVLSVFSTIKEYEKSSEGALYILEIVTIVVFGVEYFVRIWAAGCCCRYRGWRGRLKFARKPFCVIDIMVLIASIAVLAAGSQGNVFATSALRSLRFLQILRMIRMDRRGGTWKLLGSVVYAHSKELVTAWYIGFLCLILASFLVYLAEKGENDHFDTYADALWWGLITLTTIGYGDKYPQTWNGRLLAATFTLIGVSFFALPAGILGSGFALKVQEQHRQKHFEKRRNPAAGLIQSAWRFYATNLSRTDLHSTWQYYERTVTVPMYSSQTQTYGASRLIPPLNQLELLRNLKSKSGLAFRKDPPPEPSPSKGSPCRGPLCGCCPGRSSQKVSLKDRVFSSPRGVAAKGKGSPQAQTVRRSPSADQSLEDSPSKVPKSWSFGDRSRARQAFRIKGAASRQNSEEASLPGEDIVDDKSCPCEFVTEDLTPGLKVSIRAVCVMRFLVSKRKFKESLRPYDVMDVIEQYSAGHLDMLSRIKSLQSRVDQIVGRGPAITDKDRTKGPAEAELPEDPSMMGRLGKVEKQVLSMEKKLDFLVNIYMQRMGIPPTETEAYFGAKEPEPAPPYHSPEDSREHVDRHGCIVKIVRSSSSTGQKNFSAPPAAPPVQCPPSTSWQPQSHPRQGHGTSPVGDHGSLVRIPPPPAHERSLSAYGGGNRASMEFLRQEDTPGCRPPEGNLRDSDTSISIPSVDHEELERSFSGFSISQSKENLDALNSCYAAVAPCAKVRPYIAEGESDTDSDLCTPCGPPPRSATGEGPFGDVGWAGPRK
# Sequence (O43525 whole entry): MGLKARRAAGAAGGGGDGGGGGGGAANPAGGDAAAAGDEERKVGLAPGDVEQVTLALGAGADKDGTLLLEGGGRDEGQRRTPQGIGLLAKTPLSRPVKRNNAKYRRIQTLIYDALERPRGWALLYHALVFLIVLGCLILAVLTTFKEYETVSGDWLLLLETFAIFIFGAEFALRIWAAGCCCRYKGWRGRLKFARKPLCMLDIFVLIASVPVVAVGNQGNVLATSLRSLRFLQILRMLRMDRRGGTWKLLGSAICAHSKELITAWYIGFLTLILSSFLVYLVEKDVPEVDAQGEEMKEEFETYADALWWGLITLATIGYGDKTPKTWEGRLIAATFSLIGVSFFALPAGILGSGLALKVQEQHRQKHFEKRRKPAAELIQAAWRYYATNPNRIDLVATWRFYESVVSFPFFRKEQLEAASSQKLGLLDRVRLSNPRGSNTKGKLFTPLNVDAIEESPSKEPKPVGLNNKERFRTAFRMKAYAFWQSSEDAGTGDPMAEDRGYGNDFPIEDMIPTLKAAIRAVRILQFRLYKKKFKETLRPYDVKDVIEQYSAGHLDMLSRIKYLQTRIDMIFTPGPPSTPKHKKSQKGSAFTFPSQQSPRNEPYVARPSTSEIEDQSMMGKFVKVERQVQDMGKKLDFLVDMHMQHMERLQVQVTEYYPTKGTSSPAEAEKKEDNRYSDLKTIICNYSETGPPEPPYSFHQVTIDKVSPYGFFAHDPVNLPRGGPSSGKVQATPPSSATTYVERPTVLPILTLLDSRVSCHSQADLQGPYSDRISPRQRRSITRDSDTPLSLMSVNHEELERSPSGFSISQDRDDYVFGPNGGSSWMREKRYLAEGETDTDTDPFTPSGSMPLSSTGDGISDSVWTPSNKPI
# Measurement Protocol: Activation of human Kv7.2/7.3 by patch clamp method
pEC50: −log10 of the molar value.
Reported Metric: pEC50

Known pEC50 results, listed for orientation:
[
  {
    "Structure String": "C[C@H](NC(=O)c1cc(F)c(F)cc1Oc1ccccc1)c1cccc(S(C)(=O)=O)c1",
    "Reported Metric": "pEC50",
    "Experimental Value": "6.70 to 6.89"
  },
  {
    "Structure String": "O=C(N[C@@H](CO)c1cccc(C(F)(F)F)c1)[C@H]1CC(F)(F)CC[C@@H]1c1ccccc1",
    "Reported Metric": "pEC50",
    "Experimental Value": "7.10 to 7.30"
  },
  {
    "Structure String": "CS(=O)(=O)c1cccc([C@H](CO)NC(=O)c2cc(S(F)(F)(F)(F)F)ccc2Oc2ccccc2)c1",
    "Reported Metric": "pEC50",
    "Experimental Value": "7.22 to 7.70"
  }
]

# evaluate next
Entry C[C@H](NC(=O)[C@H]1CC(F)(F)CC[C@@H]1c1ccccc1)c1ccccc1 ; pEC50 = 6.40 to 6.70
